Values compiled from ChEMBL document CHEMBL1136264.

# TARGET_SYSTEM: Sphingosine 1-phosphate receptor 2 (Homo sapiens) (UniProt O95136)
# Sequence (O95136 whole entry): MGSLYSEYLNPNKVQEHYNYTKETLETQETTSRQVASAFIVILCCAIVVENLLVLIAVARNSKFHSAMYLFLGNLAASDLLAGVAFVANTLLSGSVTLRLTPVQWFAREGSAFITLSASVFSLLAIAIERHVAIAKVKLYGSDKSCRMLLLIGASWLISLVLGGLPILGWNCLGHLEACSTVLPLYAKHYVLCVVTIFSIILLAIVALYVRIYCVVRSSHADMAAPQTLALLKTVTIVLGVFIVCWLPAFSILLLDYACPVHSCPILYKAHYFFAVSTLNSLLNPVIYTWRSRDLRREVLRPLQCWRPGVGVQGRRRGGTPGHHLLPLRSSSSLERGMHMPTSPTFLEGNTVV
# PROTOCOL: In vitro binding affinity towards Endothelial differentiation G-protein coupled receptor 5 in CHO cells using [3H]S1P as radioligand relative to SIP
# Assay type: cell-based
MEASURED_ENDPOINT: Relative binding affinity (%)
# value in %; strip the unit string

Request: Return reported Relative binding affinity. Input compound: CCCCCCCCCCCCCCC[C@H](O)[C@@H](N)COP(=O)(O)O
Result: 30

Request: Return reported Relative binding affinity. Input compound: CCCCCCCCCCCCC/C=C/[C@H](O)[C@@H](N)COP(=O)(O)O
Result: 23

Request: Return reported Relative binding affinity. Input compound: CCCCCCCCCCCCC/C=C/[C@H](O)[C@H](N)COP(=O)(O)O
Result: 41

Request: Return reported Relative binding affinity. Input compound: CCCCCCCCCCCCCCC[C@@H](O)[C@@H](N)COP(=O)(O)O
Result: 54
